System: AD293
Test: Cytotoxicity against human AD293 cells assessed as cell viability at 0.1 to 10 uM incubated for 24 hrs by MTT assay
Type: toxicity, cell-based
Conditions: ad293, 24 h, dose 0.1-10 µM
quantity: Activity

substancesmiles=CCOCc1nc2c(NC(=O)OCC3=C4C(C)=CC(C)=[N+]4[B-](F)(F)n4c(C)cc(C)c43)nc3ccccc3c2n1CC(C)(C)O quantity=Activity result=Toxic
substancesmiles=COCCOCCOCCOc1ccc(/C=C/C2=[N+]3C(=C(CO)c4c(C)cc(/C=C/c5ccc(OCCOCCOCCOC)cc5)n4[B-]3(C)C)C(C)=C2)cc1 quantity=Activity result=Non-toxic
substancesmiles=CCOCc1nc2c(NC(=O)OCC3=C4C(C)=CC(/C=C/c5ccc(OCCOCCOCCOC)cc5)=[N+]4[B-](C)(C)n4c(/C=C/c5ccc(OCCOCCOCCOC)cc5)cc(C)c43)nc3ccccc3c2n1CC(C)(C)O quantity=Activity result=Non-toxic
substancesmiles=COCCOCCOCCOc1ccc(/C=C/C2=[N+]3C(=C(CO)c4c(C)cc(/C=C/c5ccc(OCCOCCOCCOC)cc5)n4[B-]3(F)F)C(C)=C2)cc1 quantity=Activity result=Non-toxic
substancesmiles=CC1=CC(C)=[N+]2C1=C(CO)c1c(C)cc(C)n1[B-]2(F)F quantity=Activity result=Toxic
substancesmiles=CCOCc1nc2c(NC(=O)OCC3=C4C(C)=CC(/C=C/c5ccc(OCCOCCOCCOC)cc5)=[N+]4[B-](F)(F)n4c(/C=C/c5ccc(OCCOCCOCCOC)cc5)cc(C)c43)nc3ccccc3c2n1CC(C)(C)O quantity=Activity result=Non-toxic
